Molecular target: T1, human PVR (SPR of the humanized variants, Example 5) (human, UniProt P15151 21-343)
T1 sequence: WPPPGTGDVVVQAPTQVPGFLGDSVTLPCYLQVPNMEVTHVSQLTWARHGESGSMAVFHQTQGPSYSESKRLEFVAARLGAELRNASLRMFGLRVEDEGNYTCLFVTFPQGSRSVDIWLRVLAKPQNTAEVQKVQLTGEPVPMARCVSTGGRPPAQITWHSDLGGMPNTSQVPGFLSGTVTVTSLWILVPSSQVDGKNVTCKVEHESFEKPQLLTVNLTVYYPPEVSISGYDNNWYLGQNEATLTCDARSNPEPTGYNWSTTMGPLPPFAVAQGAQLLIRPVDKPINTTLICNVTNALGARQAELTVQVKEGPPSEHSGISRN
Assay: SPR
pKd: −log10 of the molar value.
Each record here notes measured pKd.
readout-type: pKd

INSERT INTO measurements (binder, readout_number) VALUES
  ('IgG4(S241P)_N56E_VH0/Vκ1 (antibody, V domains shown, half-humanized control pairing; also called VH0/Vk1) VH: QVQLQQSGAELMKPGASVKISCKATGYTFSNYWIEWIKQRPGHGLEWIGEIFPGSGRINFNEKFKGKATFTADTSSDTTYMQLSSLTSADSAVYYCARTKIYGNSFDYWGQGTTLTVSP VL: DIMMTQSPSFLSASVGDRVTITCKASQDVGTAVVWYQQKPGKAPKLLIYWASSRHEGVPDRFTGSGSGTDFTLTISSLQSEDFADYFCQQYSRYPLTFGQGTKLEIK', 8.39),
  ('humanized 5B9 variant VH5/VK2 (antibody, V domains shown) VH: QVQLVQSGAEVKKPGASVKVSCKATGYTFSNYWIEWVRQAPGQGLEWMGEIFPGSGRINFNEKFKGRVTFTADTSISTAYMELSRLRSDDTAVYYCARTKIYGNSFDYWGQGTLVTVSS VL: DIQMTQSPSSLSASVGDRVTITCKASQDVGTAVVWYQQKPGKAPKLLIYWASSRHEGVPDRFSGSGSGTDFTLTISSLQPEDFADYFCQQYSRYPLTFGQGTKLEIK', 8.25),
  ('humanized 5B9 variant VH3/VK3 (antibody, V domains shown) VH: QVQLVQSGAEVKKPGASVKVSCKATGYTFSNYWIEWIKQAPGQGLEWIGEIFPGSGRINFNEKFKGRVTFTADTSISTTYMELSRLRSDDTAVYYCARTKIYGNSFDYWGQGTLVTVSS VL: DIQMTQSPSSLSASVGDRVTITCRASQDVGTAVVWYQQKPGKAPKLLIYWASSRHEGVPSRFSGSGSGTDFTLTISSLQPEDFATYFCQQYSRYPLTFGQGTKLEIK', 8.27);
